# measurementTarget: Human SIRPα v1 (antigen of the Octet and Biacore affinity measurements) (human, UniProt P78324 31-370, limits assumed)
# Sequence (P78324 31-370 limits assumed): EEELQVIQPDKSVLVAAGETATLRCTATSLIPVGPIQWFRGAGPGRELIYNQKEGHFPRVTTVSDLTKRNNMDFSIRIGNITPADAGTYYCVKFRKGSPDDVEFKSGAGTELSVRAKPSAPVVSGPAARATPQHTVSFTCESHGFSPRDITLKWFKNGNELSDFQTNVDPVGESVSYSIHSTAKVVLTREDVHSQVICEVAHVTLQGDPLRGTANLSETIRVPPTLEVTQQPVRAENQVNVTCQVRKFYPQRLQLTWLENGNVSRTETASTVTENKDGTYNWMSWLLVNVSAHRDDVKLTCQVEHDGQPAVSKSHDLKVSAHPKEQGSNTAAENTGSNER
# methodSummary: BLI (Octet), 1:1 binding model
Please mark yes if the recorded koff is equal to or greater than 0.002 s⁻¹, and no if it falls below.

// known answers, use as guide
[[record]]
binder = "073c (antibody, V domains shown, also called chimeric antibody 073c) VH: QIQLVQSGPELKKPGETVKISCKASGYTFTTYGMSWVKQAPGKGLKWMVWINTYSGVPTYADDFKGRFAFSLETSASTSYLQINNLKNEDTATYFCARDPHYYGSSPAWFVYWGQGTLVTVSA VL: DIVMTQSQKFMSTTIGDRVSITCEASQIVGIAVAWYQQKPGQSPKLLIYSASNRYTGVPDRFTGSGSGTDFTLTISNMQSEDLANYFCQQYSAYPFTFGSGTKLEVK"
classname = "yes"

[[record]]
binder = "025c (antibody, V domains shown, also called chimeric antibody 025c; parental antibody of 025c) VH: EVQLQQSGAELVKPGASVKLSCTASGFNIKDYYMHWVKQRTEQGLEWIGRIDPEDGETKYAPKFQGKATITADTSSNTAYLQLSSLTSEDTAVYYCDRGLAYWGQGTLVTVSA VL: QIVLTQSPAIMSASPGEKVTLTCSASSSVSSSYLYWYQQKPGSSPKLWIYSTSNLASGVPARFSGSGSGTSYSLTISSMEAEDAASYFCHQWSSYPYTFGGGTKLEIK"
classname = "no"

[[record]]
binder = "hu1H9G4 (antibody, V domains shown) VH: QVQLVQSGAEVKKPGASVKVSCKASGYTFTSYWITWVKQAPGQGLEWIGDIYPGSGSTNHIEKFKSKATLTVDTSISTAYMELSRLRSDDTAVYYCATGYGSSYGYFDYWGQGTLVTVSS VL: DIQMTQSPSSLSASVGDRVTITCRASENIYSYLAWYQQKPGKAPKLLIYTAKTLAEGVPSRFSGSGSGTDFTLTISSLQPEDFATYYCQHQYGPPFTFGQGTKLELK"
classname = "yes"

[[record]]
binder = "042c (antibody, V domains shown, also called chimeric antibody 042c) VH: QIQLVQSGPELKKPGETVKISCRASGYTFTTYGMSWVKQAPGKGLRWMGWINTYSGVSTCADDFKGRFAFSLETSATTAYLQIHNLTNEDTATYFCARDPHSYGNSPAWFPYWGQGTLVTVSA VL: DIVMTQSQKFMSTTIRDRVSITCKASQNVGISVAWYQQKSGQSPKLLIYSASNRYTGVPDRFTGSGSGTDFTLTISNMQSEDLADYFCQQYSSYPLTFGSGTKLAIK"
classname = "yes"

[[record]]
binder = "071c (antibody, V domains shown, also called chimeric antibody 071c) VH: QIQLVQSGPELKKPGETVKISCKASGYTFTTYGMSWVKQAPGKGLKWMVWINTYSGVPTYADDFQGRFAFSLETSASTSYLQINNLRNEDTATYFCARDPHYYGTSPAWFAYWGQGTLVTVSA VL: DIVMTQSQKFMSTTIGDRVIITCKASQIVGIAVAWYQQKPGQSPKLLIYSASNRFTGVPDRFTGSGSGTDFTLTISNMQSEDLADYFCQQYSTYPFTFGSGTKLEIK"
classname = "yes"

[[record]]
binder = "015c (antibody, V domains shown, also called chimeric antibody 015c) VH: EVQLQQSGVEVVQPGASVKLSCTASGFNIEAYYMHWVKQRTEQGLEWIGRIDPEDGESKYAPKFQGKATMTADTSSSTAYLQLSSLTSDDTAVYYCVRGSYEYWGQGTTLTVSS VL: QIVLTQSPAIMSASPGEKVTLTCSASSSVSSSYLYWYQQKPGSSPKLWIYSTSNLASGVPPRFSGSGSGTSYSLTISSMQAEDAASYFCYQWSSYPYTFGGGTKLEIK"
classname = "no"


Challenge: Hello, I need to know if 059c (antibody, V domains shown, also called chimeric antibody 059c) VH: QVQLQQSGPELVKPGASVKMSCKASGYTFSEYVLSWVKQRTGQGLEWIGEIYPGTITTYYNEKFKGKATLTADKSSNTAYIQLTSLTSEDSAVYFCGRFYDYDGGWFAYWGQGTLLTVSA VL: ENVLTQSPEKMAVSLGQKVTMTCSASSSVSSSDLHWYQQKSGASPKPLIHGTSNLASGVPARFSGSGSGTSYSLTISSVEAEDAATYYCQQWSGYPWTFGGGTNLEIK has measured koff not below 0.002 s⁻¹. Thanks!
Response given: yes
